System: HOP-92 NSCLC
Assay summary: NCI tumour cell line growth inhibition, 48 h
Readout type: TGI

Compound | TGI
COc1ccc(C2Oc3ccc(O)cc3[C@@H]2C)cc1OC (stereo partly specified) | > 100 µM

Problem: What value of TGI has been reported for the following compound? Cc1cc2nc3[nH]c4c(Cl)cc(Cl)cc4c3nc2cc1C
Result: > 100 µM

Problem: Same read-out for COc1ccccc1C=NC12CC3CC(CC(C3)C1)C2 ?
Result: > 100 µM

Problem: Same read-out for CCOC(=O)C(=CNC(=S)c1ccncc1)C(=O)OCC ?
Result: > 100 µM

Problem: Same read-out for OC[C@H]1C[C@@H]2Cc3ccccc3N2N1 ?
Result: > 100 µM

Problem: Same read-out for CCCCCOc1ccc(Nc2c(O)c3c(c(O)c2Cl)C(=O)C=CC3=O)cc1 ?
Result: > 9.51 µM

###

System: DU-145 prostate
Assay summary: NCI tumour cell line growth inhibition, 48 h
Readout type: TGI

Molecule | Target or test system | TGI
CC(=O)Oc1c(C)cc2c(c1C)C(C)CN2C(C)=O (stereo not given) | DU-145 prostate | > 100 µM
CC(C)Cn1cnc2c(Sc3c([N+](=O)[O-])ncn3C)nc(N)nc21 | DU-145 prostate | > 100 µM
CC(=O)OCC1OC(n2c(C)c(C(C)=O)c(-c3ccc(Cl)cc3)c(C#N)c2=S)C(OC(C)=O)C(OC(C)=O)C1OC(C)=O (stereo not given) | DU-145 prostate | > 100 µM
O=c1cc(N2CCOCC2)[nH]c(=O)n1-c1cccc(Cl)c1 | DU-145 prostate | > 100 µM
COc1ccc(C(=O)N2N=C(c3ccc(Br)cc3)CC2c2cn(-c3ccccc3)nc2-c2ccccc2)cc1 (stereo not given) | DU-145 prostate | > 50 µM

Problem: What value of TGI has been reported for the following molecule? O=C1C2=Cc3ccccc3OC2(O)Oc2cc(O)cc(O)c21 (stereo not given)
Result: > 100 µM

Problem: Same read-out for CC(=O)Oc1ccc2c3c1[C@H]1O[C@H]1c1cccc(c1-3)[C@@H]1O[C@H]21 ?
Result: 20.8 µM

Problem: Same read-out for N#C/C(=C\c1ccc2c(c1)OCO2)n1nnc2ccccc21 ?
Result: 13.1 µM

Problem: Same read-out for Cn1ccnc1C(=O)/C=C/c1ccc(C(=O)Nc2ccc(F)cc2)cc1 ?
Result: > 50 µM

Problem: Same read-out for COc1ccc(N2C(=O)C3c4[nH]c5cccc(Cl)c5c4C4CCC(C(C)(C)C)CC4C3C2=O)cc1 (stereo not given) ?
Result: > 100 µM

Problem: Same read-out for C=C1CC[C@@H]2C(C)(C)[C@H](O)CC[C@@]2(C)[C@@H]1COc1ccc2ccc(=O)oc2c1 ?
Result: > 100 µM

Problem: Same read-out for Fc1cc(-c2csc3n[nH]c(=S)n23)c(Cl)cc1Cl ?
Result: > 100 µM

Problem: Same read-out for CC1=C(C)C2(C#N)C(=O)N3C(=NC(c4ccccc4)NC3c3ccccc3)C2(C#N)C(c2ccccc2)N1 (stereo not given) ?
Result: > 100 µM

Problem: Same read-out for C[n+]1c2ccccc2c2/c(=C\C#N)c3ccccc3n21 ?
Result: 45.8 µM

Problem: Same read-out for CC1OC(OC2C(O)COC(OC3C(C)OC(OC4C(OC(=O)[C@]56CCC(C)(C)C[C@@H]5C5=CCC7[C@@]8(C)C[C@H](O)[C@H](OC9OC(CO)C(O)C(O)C9O)[C@@](C)(CO)[C@@H]8CC[C@@]7(C)[C@]5(C)CC6)OCC(O)C4O)C(O)C3OC3OCC(O)C(O)C3O)C2O)C(O)C(O)C1O (stereo not given in full) ?
Result: 36.2 µM

###

Tested on: OVCAR-5 ovarian
Assay summary: NCI tumour cell line growth inhibition, 48 h
# TGI listing for each entry below
Quick reminder: number only, in µM, skip the unit.

Answered examples (2):
Compound | TGI, µM
C=C[C@]1(C)CC(O)C2C(=C)C(=O)OC2[C@H]1C(=C)C=O (some centres not stated) | 24.8
COc1ccc(SS(=O)(=O)c2ccc(OC)cc2)cc1 | 76.4

Problem: Hi! What's the reported TGI for O=C1C(C(Nc2ccccc2)c2ccccc2)=C([O-])c2ccccc21.O=C1C(C(Nc2ccccc2)c2ccccc2)=C([O-])c2ccccc21.[Ni+2] (configuration not stated) on OVCAR-5 ovarian?
Result: 49.5

###

Test system: MCF7 breast
Assay summary: NCI tumour cell line growth inhibition, 48 h
Readout type: TGI

Compound | Test value
O=C(NCCCCN(CCCNC(=O)C(F)(F)F)Cc1ccccc1)C(F)(F)F | > 100 µM

Problem: What value of TGI has been reported for the following compound? CN1CCCN(C)CCCN(C)CCCN(C)CCC1
Result: > 100 µM

Problem: Same read-out for Cc1ccc(NN=NCCCCN=NNc2ccc(C)cc2)cc1 ?
Result: > 100 µM

Problem: Same read-out for O=C1/C(=C/c2ccc(Cl)cc2Cl)CN(S(=O)(=O)c2ccccc2)C/C1=C\c1ccc(Cl)cc1Cl ?
Result: > 100 µM

Problem: Same read-out for CN(N=O)C(=O)NNC(=O)N(C)N=O ?
Result: > 100 µM

Problem: Same read-out for COc1cccc(C2CC(=O)c3cc(N4CCCC4)ccc3N2)c1 (stereo not given) ?
Result: > 100 µM

Problem: Same read-out for Cc1ccc(/C(O)=C/c2nc3ccccc3[nH]c2=O)cc1 ?
Result: > 100 µM

Problem: Same read-out for CN(C)C(=O)Oc1ccc[n+](C)c1 ?
Result: > 100 µM

Problem: Same read-out for O=C(NC(N1CCN(c2cc3c(cc2F)c(=O)c(C(=O)O)cn3C2CC2)CC1)(C(F)(F)F)C(F)(F)F)c1ccccc1 ?
Result: > 100 µM

Problem: Same read-out for Cc1ccc2c(c1)C(=O)C(c1c(-c3[nH]c(=O)c4ccc(C)cc4c3O)c(O)c3ccccc3c1O)=NC2=O ?
Result: 4.58 µM

Problem: Same read-out for COC(=O)CCC1(C)C2CCC1/C(=N/O)C2 (stereo not given) ?
Result: > 100 µM

Problem: Same read-out for Fc1cc(-c2csc3n[nH]c(=S)n23)c(Cl)cc1Cl ?
Result: > 100 µM

Problem: Same read-out for COc1cc(O)c2c3c(ccnc13)-c1ccccc1N2 ?
Result: 8.59 µM

Problem: Same read-out for Cc1nc2ccccc2c(=O)n1NC(=O)c1ccc(N)cc1 ?
Result: > 100 µM

Problem: Same read-out for Cc1ccc(C2CC(c3cccc(Nc4ccncc4)c3)=NN2c2cc(Cl)cc(Cl)c2)cc1 (stereo not given) ?
Result: 4.1 µM

###

# TGI listing for each entry below
System: UO-31 renal
Assay summary: NCI tumour cell line growth inhibition, 48 h

Answered examples (5):
Compound | Target or test system | Readout type | Test value
C#CCC(O)c1ccccc1C(O)CC#C (stereo unspecified) | UO-31 renal | TGI | > 100 µM
COc1ccc2c(c1)C(=Nc1ccc(F)c(F)c1F)c1c-2c(Nc2ccc(F)c(F)c2F)nc2ccccc12 | UO-31 renal | TGI | > 100 µM
Cc1[nH]n(-c2ncc(C#N)c(=O)[nH]2)c(=O)c1CCO | UO-31 renal | TGI | > 100 µM
COc1ccc(-n2cnc3c(N)nc(N)nc32)cc1 | UO-31 renal | TGI | > 100 µM
O=C(NCCCCN(CCCNC(=O)C(F)(F)F)Cc1ccccc1)C(F)(F)F | UO-31 renal | TGI | > 100 µM

Problem: What value of TGI has been reported for the following compound? NC(N)=NCCCC(NC(=O)OCCCCCn1ccc(N)nc1=O)C(=O)O (stereo unspecified)
Result: > 100 µM

###

Tested on: ACHN renal
Assay summary: NCI tumour cell line growth inhibition, 48 h
# TGI listing for each entry below

Answered examples (2):
Compound | TGI
CC(=O)c1c(-c2ccc(Cl)cc2)c(C#N)c(=S)n(C2OC(CO)C(O)C(O)C2O)c1-c1ccccc1 (stereo not drawn) | > 100 µM
CC(C)=NNC1=NC(C)(C)P(=O)(NNc2ncccn2)S1 (stereo not drawn) | > 100 µM

For the next question, use this compound.
Problem: What value of TGI has been reported for the following compound? NC(N)=NCCCC(NC(=O)OCCCCCn1ccc(N)nc1=O)C(=O)O (stereo not drawn)
Result: > 100 µM

###

System: HCT-116 colon
Assay summary: NCI tumour cell line growth inhibition, 48 h
Readout type: TGI

Answered examples (5):
Test smiles | Test value
CCCCC(CCCC)=NNC(=S)SC | 38.6 µM
CCc1c(-c2ccccc2)[nH]c2ccccc2c1=O | > 100 µM
COc1ccccc1C=NC12CC3CC(CC(C3)C1)C2 | > 10 µM
Cc1ccc(NN=NCCCCN=NNc2ccc(C)cc2)cc1 | > 100 µM
Cc1cc2nc3[nH]c4c(Cl)cc(Cl)cc4c3nc2cc1C | > 100 µM

For the next question, use this molecule.
Problem: Hi! What's the reported TGI for CCOC(=O)C(=Cc1ccc(-c2ccccc2)cc1)C(=O)OCC on HCT-116 colon?
Result: 4.91 µM
